Attribution: patent US20060084628A1

Assay: Population PK analysis of plasma and urine data, healthy subjects, 1×20 mg tablet PO (ACH443-011)
Conditions: human, in vivo, po, 20 mg
REPORTED_ENDPOINT: CL renal

Field request: CL renal | item: Nc1nc(=O)n([C@H]2C=C[C@@H](CO)O2)cc1F 105 mL/min

###

System: HIV
Test: In vitro IC50 for HIV
Format: cell-based
Conditions: Human immunodeficiency virus 1; read-out: in vitro IC50 for HIV
REPORTED_ENDPOINT: IC50 (nM)
Hi! Could you send only the number? It should be in nM, unit omitted.

# input compound: Nc1nc(=O)n([C@H]2C=C[C@@H](CO)O2)cc1F [Elvucitabine] ; wanted: its IC50 4.8
